viability at 48 h, 5 µM values for the compounds below.
test_details: Cytotoxicity against mouse Hepa-1c1c7 cells assessed as cell survival at 5 uM after 48 hrs by MTT assay
Type: cell-based
experimental_context: read-out: Activity
Express the reported value numerically, then name its unit.

Check out these entries, answers already filled in.
INSERT INTO assay_data (compound, test_value) VALUES
  ('COc1cc(OC)c2c(c1)O/C(=C\c1cccc(Cl)c1)C2=O', '103%'),
  ('COc1cccc(/C=C2\Oc3cc(O)ccc3C2=O)c1', '85%'),
  ('O=C1Oc2ccc(O)cc2/C1=C/c1ccccc1F', '102%'),
  ('O=C1/C(=C/c2ccccc2)Oc2cc(O)ccc21', '115%'),
  ('COc1cc(OC)c2c(c1)OC(Cc1ccccc1O)C2=O (stereo unspecified)', '102%');

Consider the compound `COc1cc(OC)c2c(c1)O/C(=C\c1ccccc1)C2=O` and give its measured viability at 48 h, 5 µM.
93%
